Catalogue of Total number of conformations values
Target: SARS-CoV-2 NSP3 macrodomain (Mac1), P43 crystal form (Severe acute respiratory syndrome coronavirus 2, UniProt P0DTD1)
Type: binding
Details: ligand conformations modeled in Mac1 crystal structure
Form field (numeric): enter value without unit.

Give the reported Total number of conformations for this compound. OCC(CC1CCCCC1)Nc1ncnc2[nH]ccc12 (stereo not shown)
1

Give the reported Total number of conformations for this compound. OC1(CNc2ncnc3[nH]ccc23)CCSCC1
1

---
Give the reported Total number of conformations for this compound. OCC1CC2(CCC2)CN1c1ncnc2[nH]ccc12 (stereo not shown)
2

Give the reported Total number of conformations for this compound. OCC1CCCN1c1ncnc2[nH]ccc12 (stereo not shown)
1

Give the reported Total number of conformations for this compound. CCC(Nc1ncnc2[nH]ccc12)C(C)O (stereo not shown)
2

Give the reported Total number of conformations for this compound. OCC(Cc1ccc(I)cc1)Nc1ncnc2[nH]ccc12 (stereo not shown)
2

Give the reported Total number of conformations for this compound. OCC(CC(O)c1ccccc1)Nc1ncnc2[nH]ccc12 (stereo not shown)
1

Data origin: paper doi:10.1101/2024.08.25.609621
